# Test system: LOK;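 note: KINOMEscan kinase panel screen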
# Construct: gene STK10
# protocol.conditions: concentration: 1 μM,replicates: in singlicate; n = 1
measured.parameter: %Inh

As a guide, the following entries are already answered.
NC(=O)c1ccc(-c2cc3ncnc(SCC(=O)O)c3s2)cc1	0%
C[C@@H]1CNc2c(sc3ccc4nc(-c5ccc(O)cc5)ccc4c23)C(=O)N1	19%
c1ccc(Oc2ccc(Nc3ccnc4ccc(-c5ccccn5)cc34)cc2)cc1 [GW407034]	0%
COc1cc(Nc2nccc(N3CCC(NC(=O)c4cccc(C#N)c4)C3)n2)cc(OC)c1OC (stereo not drawn) [GSK1379751]	0%
CC(C)c1nc(-c2cccc(NS(=O)(=O)c3ccccc3)c2)c(-c2ccnc(Nc3ccc4c(c3)CN(C)CC4)n2)s1 [GSK1649598]	97.5%
Cn1ccc2ncnc(Oc3ccc(NC(=O)Nc4cccc(C(F)(F)F)c4)c(Cl)c3)c21	99.9%

Give %Inh for each of the items listed below.
1. Cl.Nc1n[nH]c2cc(-c3ccccn3)ccc12 [GSK2189892]
2. N#Cc1cccc(C(=O)NC2CCN(c3ccnc(Nc4ccc(F)cc4)n3)C2)c1 (stereo not drawn) [GSK1379708]

**A:**
0%
0%

**Q:** Which value of %Inh has been reported for CN(c1ccccc1CNc1nc(Nc2ccc3c(c2)CC(=O)N3)ncc1C(F)(F)F)S(C)(=O)=O in the records?
**A:** 57%
